Source listed as PubChem BioAssay (NCI).

Form field: growth (one value per entry).
tested on: NCI-H522 lung; assay: NCI-60 one-dose screen, 48 h (100 = growth as untreated, 0 = no growth, -100 = all killed); details: 10 µM unless noted
The panel holds about 83,000 compounds, 20% with a hit somewhere; the sample as a whole holds those more often. Calls of active or inactive are those of the source. How the source made its calls: active means growth percent below 10; inactive means the rest.

Answered cases to consult:
| smiles-notation | growth |
| --- | --- |
| COc1ccc(-c2cc(-c3cc(OC)c(OC)c(OC)c3)c(C#N)c(=O)n2CCCCC(=O)NO)cc1 | 54.6% (inactive) |
| COCCOc1cc2ncnc(N3CCN(c4ncc(S(=O)(=O)N5CCCCC5)cn4)CC3)c2cc1OCCOC | 84.4% (inactive) |

Summary: `NC(=O)c1c(NC(=O)c2ccc3ccccc3c2)sc2c1CCC(=O)C2` , NCI-H522 lung, growth = 10.5% (inactive)

// returns growth for `Cc1ccc2c(c1)=C/C(=C\c1cc(-c3ccccc3)oc1O)C(=O)N=2` with NCI-H522 lung; value = 97.4% (inactive)

Given the compound `O=C(O)c1ccc(-n2cc(/C=N/Nc3ccccc3)c(-c3ccc(F)cc3F)n2)cc1` and test system NCI-H522 lung, the measured growth is 26.6% (inactive)

* * *

system: TK-10 renal; assay: NCI-60 one-dose screen, 48 h; conditions: 10 µM unless noted
This is part of a sample that, as a whole, favours compounds with a hit. Of some 83,000 tested, about 20% had one in any assay. Calls of active or inactive are those of the source. Rule for the calls: active = growth percent below 10; inactive = the rest.
Assign a class; possible classes are yes (1) (active), no (0) (inactive)

Would you please look over these solved cases?
| molecule | measured-target | label |
| --- | --- | --- |
| COc1ccc(C(=O)c2cc3c(N)c(C(=O)Nc4ccc(C)cc4)sc3nc2C)cc1 | TK-10 renal | no (0) |
| C=CCN=c1sc2c(n1NC(=O)c1cc3ccc1CCc1ccc(cc1)CC3)C(=O)c1ccccc1C2=O | TK-10 renal | no (0) |

Recorded test outcome, item `N#Cc1nc(-c2ccc(F)cc2)oc1S(=O)(=O)N1CCCCC1`
yes (1)

Outcome? `COc1ccc(-c2ccc(=O)oc2-c2cc(OC)c(OC)c(OC)c2)cc1O`
no (0)

Recorded call for `OCCn1cc(-c2nc(-c3c[nH]c4ncccc34)cs2)c2ccccc21` ?
no (0)

* * *

tested on: SK-MEL-5 melanoma; assay: NCI-60 one-dose screen, 48 h; conditions: 10 µM unless noted
Compounds without any hit were thinned out: in the full panel of roughly 83,000, 20% have a hit. Calls of active or inactive are those of the source. The calls were made as follows: active = growth percent below 10; inactive = the rest.
Respond only with the outcome that fits, drawn from active, inactive

| smiles-notation | measured-target | label |
| --- | --- | --- |
| O=C(N(c1ccccc1)c1ccccc1)n1cc(I)c2nc(Cl)nc(Cl)c21 | SK-MEL-5 melanoma | inactive |
| O=C(Nc1nc2ccc(C(=O)N3CCN(/C=C/c4ccccc4)CC3)cc2s1)c1ccc(NCCc2ccccc2)c([N+](=O)[O-])c1 | SK-MEL-5 melanoma | inactive |
| COc1ccc(Cc2cnc(NC(=O)c3cc(C)oc3C)s2)cc1 | SK-MEL-5 melanoma | inactive |
| Cc1ccc2c(Cn3cc(CSc4nc5ccccc5o4)nn3)cc(=O)oc2c1 | SK-MEL-5 melanoma | inactive |
| O=C(Nc1cccc(-c2ccc(N3CCOCC3)nn2)c1)Nc1cccc(C(F)(F)F)c1 | SK-MEL-5 melanoma | inactive |
| N#Cc1c(-c2ccccc2)cc(-c2ccc(Nc3nc(Nc4ccc(Cl)cc4)nc(Nc4ccc(Cl)cc4)n3)cc2)nc1N | SK-MEL-5 melanoma | active |
| Cn1ccnc1C(=O)/C=C/c1ccc(C(=O)Nc2ccc(Cl)cc2)cc1 | SK-MEL-5 melanoma | inactive |
| N=C(N)c1ccc(-c2ccc(-c3ccccc3)o2)cc1 | SK-MEL-5 melanoma | active |

We next turn to a different compound, shown below.
Fill in: this test's call for `COC(=O)c1c(C)nc(C)c2c1C(=O)C(Br)=C(NCc1ccccc1)C2=O` is ___
active
